- study target: AHR (Mus musculus, UniProt P30561)
- Sequence (P30561 10-805): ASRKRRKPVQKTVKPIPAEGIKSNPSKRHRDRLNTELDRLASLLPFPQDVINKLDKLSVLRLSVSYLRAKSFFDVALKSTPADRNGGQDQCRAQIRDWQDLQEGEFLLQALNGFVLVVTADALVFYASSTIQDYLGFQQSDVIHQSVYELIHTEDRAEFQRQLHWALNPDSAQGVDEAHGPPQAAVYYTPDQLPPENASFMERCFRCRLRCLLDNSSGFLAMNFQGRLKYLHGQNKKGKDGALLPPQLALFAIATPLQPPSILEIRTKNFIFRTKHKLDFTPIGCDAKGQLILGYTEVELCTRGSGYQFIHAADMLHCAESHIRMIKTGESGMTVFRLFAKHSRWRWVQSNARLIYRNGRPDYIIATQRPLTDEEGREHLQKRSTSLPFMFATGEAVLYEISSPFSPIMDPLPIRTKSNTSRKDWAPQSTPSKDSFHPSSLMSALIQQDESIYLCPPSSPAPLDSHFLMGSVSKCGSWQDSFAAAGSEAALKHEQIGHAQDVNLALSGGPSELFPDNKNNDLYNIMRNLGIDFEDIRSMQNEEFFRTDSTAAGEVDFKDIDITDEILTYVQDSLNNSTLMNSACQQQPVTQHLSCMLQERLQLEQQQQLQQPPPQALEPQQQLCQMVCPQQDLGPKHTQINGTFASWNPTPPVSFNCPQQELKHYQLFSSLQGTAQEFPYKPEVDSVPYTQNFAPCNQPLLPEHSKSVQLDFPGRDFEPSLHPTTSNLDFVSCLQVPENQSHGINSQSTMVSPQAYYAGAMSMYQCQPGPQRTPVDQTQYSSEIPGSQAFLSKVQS
- protocol: AHR-dependent Cyp1A1 expression (P450-Glo) in mouse Hepa1.6 cells stimulated with VAF347
- condition info: read-out: IC50, AHR-dependent expression of Cyp1A1; murine Hepa1.6 cells, 2 μM VAF347, 24 hours, average
- From the text: The ability of Compound A to inhibit AHR-dependent Cyp1A1 gene expression was examined in vitro by measuring changes in Cyp1A1 enzymatic activity in 2 rodent hepatoma cell lines following AHR agonist stimulation. […] The inhibition of Cyp1A1 expression was subsequently evaluated by measuring Cyp1A1 enzyme activity using P450-Glo assays.
parameter measured: pIC50
Keep in mind that pIC50 stands for -log10 of concentration in molar terms.

Query CC(C)c1cnn2c(N[C@@H]3CCc4[nH]c5ccccc5c4C3)nc(-c3cncc(F)c3)nc12 [Compound A] yields pIC50 of 7.44
